Assay: protein stability index of a GFP-peptide fusion (GPS, HEK-293T) (PSI 1-6); higher = more stable;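 further: 24-mer peptide tiles fused after GFP, lentivirally expressed, FACS-sorted into six equal bins by GFP/DsRed ratio, decoded by Illumina sequencing, PSI is the read-weighted mean bin number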
Settings: treatment: MLN4924 1 uM, 8 h; c terminus: a fixed tail appended
Catalogue of sequences with associated protein stability index
measure: protein stability index

> print(dat)
                       sequence.record                  measure  value.measured
1     RENGNNSSDKVRGIETLESVPIIG [PHTF1]  protein stability index            4.53
2      FSGTDWMLEKMDLKEFDLDALLGI [ATF4]  protein stability index             2.5
3  FSLNPRSGSLITAGRIDREELCAQ [PCDHGA10]  protein stability index            3.93

* * *

Assay: protein stability index of a GFP-peptide fusion (GPS, HEK-293T) (PSI 1-6); higher = more stable
Conditions: treatment: MLN4924 1 uM, 8 h; c terminus: a fixed tail appended
Catalogue of sequences with associated protein stability index
measure: protein stability index

> print(dat)
                       sequence.record  value.measured
1    KEDQAWDGASQDCPPLPAGVSFHI [FBXO34]            3.46
2      HKADSIQGTARTLSPVLESPRDLQ [TNXB]             4.9
3   VNCISPLKYFSDFRPYFTIHDSEF [DENND6A]            1.92
4    FSKASSSLQLVFGIELMEVDPIGH [MAGEA3]            2.29
5  LYLCPNGARCATWFQDPTRFTGTM [SLC25A39]             2.7
6     IEGLKEELAYLRKNHEEEMLALRG [KRT16]            3.77

* * *

Assay: protein stability index of a GFP-peptide fusion (GPS, HEK-293T) (PSI 1-6); higher = more stable
Settings: treatment: DMSO; c terminus: a fixed tail appended
measure: protein stability index

> print(dat)
                     sequence.record  value.measured
1   RESCPPLGLETLKITDFQLHASTV [CPXM2]            3.29
2  GNFESLDLAEFAKKQPWWRKLFGQ [FUNDC2]            3.31
3   LSRHDKAVQRFCLIGSLSKHESEY [NETO1]            2.72
4   PLHVAQTRLYLRSHRPNMELCRDA [TEKT4]             2.9

* * *

Assay: protein stability index of a GFP-peptide fusion (GPS, HEK-293T) (PSI 1-6); higher = more stable
Conditions: treatment: DMSO; c terminus: a fixed tail appended
measure: protein stability index

> print(dat)
                     sequence.record                  measure  value.measured
1   TGGADAYYEMGIHCWDVAGAGIIV [IMPA1]  protein stability index            2.83
2           EATPRSLRASGSLCGPHAKAPYLC  protein stability index            2.77
3  PPFWDEDQHRLYKQIKAGAYDFPS [CAMK2A]  protein stability index             3.4
4  PSDFCGLTHLVKLDLSKNKLQQLP [LRRC59]  protein stability index            2.17
5    VAPPAKQAQQKKAPAKKANSTTTA [BRD3]  protein stability index            5.11
6   LAGGKLILSLEGGYNLRALAEGVS [HDAC6]  protein stability index            2.99
